- studyTarget: Nuclear receptor subfamily 1 group I member 2 (Homo sapiens) (UniProt O75469)
- Sequence (O75469 whole entry, looked up): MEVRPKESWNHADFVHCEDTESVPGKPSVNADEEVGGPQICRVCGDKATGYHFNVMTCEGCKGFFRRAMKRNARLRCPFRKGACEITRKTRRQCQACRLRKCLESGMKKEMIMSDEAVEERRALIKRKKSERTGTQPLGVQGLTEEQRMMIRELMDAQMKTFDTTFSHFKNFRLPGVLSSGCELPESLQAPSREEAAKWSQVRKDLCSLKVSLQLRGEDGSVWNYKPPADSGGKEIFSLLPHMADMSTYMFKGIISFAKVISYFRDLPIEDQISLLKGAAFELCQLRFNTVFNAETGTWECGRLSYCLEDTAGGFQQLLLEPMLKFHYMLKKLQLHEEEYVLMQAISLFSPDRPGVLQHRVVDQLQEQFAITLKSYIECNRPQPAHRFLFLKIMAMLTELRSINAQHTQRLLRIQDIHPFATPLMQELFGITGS
- experimentSummary: ATG_PXR_TRANS: Attagene TRANS-FACTORIAL HepG2 Assay for human Pregnane X Receptor (PXR) (AID 2283008)
Results filed as inconclusive are left out. The source made the active and inactive calls. The calls were made as follows: active = hit-call score of the fitted dose curve at least 0.9, where 1 is the maximum; inconclusive = response in the unintended direction; inactive = score below 0.9.
Outcome field: choose from Y = active, N = inactive

Known results for compounds:
| compound | assignedLabel |
| --- | --- |
| Clc1nc(Cl)nc(Nc2ccccc2Cl)n1 | N |
| CO/N=C(/C1=NOCCO1)c1ccccc1Oc1ncnc(Oc2ccccc2Cl)c1F | N |
| CSC(=O)c1c(C(F)F)nc(C(F)(F)F)c(C(=O)SC)c1CC(C)C | Y |
| CCN(CC)c1nc(C)cc(OP(=S)(OC)OC)n1 | Y |
| CC(C)NC(=O)N1CC(=O)N(c2cc(Cl)cc(Cl)c2)C1=O | Y |

Would you kindly look at the next entry?
Problem: Recorded test outcome, item CC(C)(C)C(=O)C(Oc1ccc(Cl)cc1)n1cncn1 (stereo unspecified)
Result: Y

---

- experimentSummary: APR_HepG2_MitoMembPot_72hr: Apredica 72-hour HepG2 Assay for Mitochondrial Membrane Potential (AID 2282917)
- conditionInfo: imaging, actives raise or lower the signal
The source made the active and inactive calls. The calls were made as follows: active = hit-call score of the fitted dose curve at least 0.9, where 1 is the maximum; inactive = score below 0.9.
Outcome field: choose from Y = active, N = inactive

| compound | assignedLabel |
| --- | --- |
| CCOc1cc(C(C)(C)C)ccc1C1COC(c2c(F)cccc2F)=N1 (stereo unspecified) | N |
| N#Cc1c(Cl)cccc1Cl | N |
| Cn1c(-c2ccccc2)cc(-c2ccccc2)[n+]1C | N |

Problem: Recorded test outcome, item CC(C)NC(=O)N1CC(=O)N(c2cc(Cl)cc(Cl)c2)C1=O
Result: N

Problem: Again, but for COP(=S)(OC)SCn1nnc2ccccc2c1=O
Result: N

Problem: Again, but for COCC(=O)N(c1c(C)cccc1C)C(C)C(=O)OC (stereo unspecified)
Result: N

Problem: Again, but for CNC(=O)N(C)c1nnc(C(C)(C)C)s1
Result: N

Problem: Again, but for Cc1nc(N(C)C)nc(OC(=O)N(C)C)c1C
Result: N

Problem: Again, but for CCNC(=O)NC(=O)C(C#N)=NOC
Result: N

Problem: Again, but for Nc1cnn(-c2ccccc2)c(=O)c1Cl
Result: N

Problem: Again, but for Nc1c(Cl)c(Cl)nc(C(=O)O)c1Cl
Result: N

Problem: Again, but for COP(=S)(OC)Oc1ccc([N+](=O)[O-])c(C)c1
Result: N

Problem: Again, but for N#Cc1c[nH]cc1-c1cccc2c1OC(F)(F)O2
Result: N

Problem: Again, but for COC(=O)N(C(=O)N1CO[C@@]2(C(=O)OC)Cc3cc(Cl)ccc3C2=N1)c1ccc(OC(F)(F)F)cc1
Result: N

---

- experimentSummary: ATG_CRE_CIS: Attagene CIS-FACTORIAL HepG2 Assay for human cAMP Responsive Element (CRE) binding protein 3 (AID 2282926)
- conditionInfo: HepG2 CRE cis-reporter, Attagene multiplexed mRNA; actives raise or lower the signal
Activity calls are given as the source filed them. How the source made its calls: active means hit-call score of the fitted dose curve at least 0.9, where 1 is the maximum; inactive means score below 0.9.
Outcome field: choose from YES for active, NO for inactive

Known results for compounds:
| compound | assignedLabel |
| --- | --- |
| CC1(C)C(C=C(Cl)Cl)C1C(=O)OC(C#N)c1cccc(Oc2ccccc2)c1 (stereo not drawn) | NO |
| Cc1cc(C)nc(Nc2ccccc2)n1 | YES |
| Cc1c(COC(=O)[C@@H]2[C@H](/C=C(\Cl)C(F)(F)F)C2(C)C)cccc1-c1ccccc1 | NO |
| COc1ccc(-c2ccccc2)cc1NNC(=O)OC(C)C | NO |
| CCCN(CC)CC1COC2(CCC(C(C)(C)C)CC2)O1 (stereo not drawn) | YES |
| CCN(CC)c1nc(C)cc(OP(=S)(OC)OC)n1 | YES |

Problem: Recorded test outcome, item C=CCOC(=O)C(C)(C)OC(=O)c1cc(-n2c(=O)cc(C(F)(F)F)n(C)c2=O)ccc1Cl
Result: YES

Problem: Again, but for CCNP(=S)(OC)O/C(C)=C/C(=O)OC(C)C (stereo not drawn)
Result: NO

Problem: Again, but for O=P(O)(O)CCCl
Result: NO

Problem: Again, but for Nc1cnn(-c2ccccc2)c(=O)c1Cl
Result: NO

Problem: Again, but for CCOC(=O)C(C)OC(=O)c1cc(Oc2ccc(C(F)(F)F)cc2Cl)ccc1[N+](=O)[O-] (stereo not drawn)
Result: NO

Problem: Again, but for CC1(C)CCC(=Cc2ccc(Cl)cc2)C1(O)Cn1cncn1 (stereo not drawn)
Result: NO

Problem: Again, but for CCCCC(C#N)(Cn1cncn1)c1ccc(Cl)cc1 (stereo not drawn)
Result: NO
